// data source = the supplement of paper PMC12645437

Exercise: state measured log2 fold change of degron read counts for each of the sequences provided.
- assayed.system: T1, CRBN, Q96SW2;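 note: pooled lentiviral library of zinc finger degron-EGFP fusions in mCherry-positive Jurkat cells, FACS-sorted after compound exposure, with degron abundance counted by next-generation sequencing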
- T1 chain: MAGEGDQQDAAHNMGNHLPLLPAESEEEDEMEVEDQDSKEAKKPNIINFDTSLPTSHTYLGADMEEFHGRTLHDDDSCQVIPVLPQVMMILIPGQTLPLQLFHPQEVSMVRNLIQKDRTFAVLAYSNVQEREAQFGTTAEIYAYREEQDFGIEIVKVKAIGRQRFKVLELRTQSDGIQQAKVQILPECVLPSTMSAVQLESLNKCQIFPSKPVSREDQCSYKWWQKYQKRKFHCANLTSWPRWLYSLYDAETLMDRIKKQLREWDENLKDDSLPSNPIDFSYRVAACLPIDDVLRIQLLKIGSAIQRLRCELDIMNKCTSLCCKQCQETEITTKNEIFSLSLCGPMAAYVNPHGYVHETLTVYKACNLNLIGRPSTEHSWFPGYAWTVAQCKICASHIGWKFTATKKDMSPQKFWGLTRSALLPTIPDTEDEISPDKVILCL
- method.notes: log2 fold change of degron read counts, EGFP-low vs EGFP+ sorted cells (limma voom), compound-induced degradation; higher = more compound-induced degradation of the degron-EGFP fusion; degrons are variants of IKZF1/3 zinc finger 2; compound dose not given here
- condition.description: Jurkat; 18 h; compound: thalidomide
Whole data set: some 8,300 sequences, median “log2 fold change of degron read counts, EGFP-low vs EGFP+ sorted cells (limma voom), compound-induced degradation” near -1.1, cut for the highest 2% near 3.2. This is one part of a sample in which the highest values are shown more often than they occur.
Numbers only.

{"item.sequence": "FWCPICGAMFTQKGNLLRHIKL [46F_47W_49P_50I_52G_53A_54M_55F_67L_, Q9UKT9]", "log2 fold change of degron read counts": 0.329}
{"item.sequence": "LCCEICGFQCTQKGNLLRHIKL [46L_47C_49E_50I_52G_53F_54Q_55C_67L_, Q9UKT9]", "log2 fold change of degron read counts": 1.91}
{"item.sequence": "LICEICGFQCTQKGNLLRHIKL [46L_47I_49E_50I_52G_53F_54Q_55C_67L_, Q9UKT9]", "log2 fold change of degron read counts": 3}
{"item.sequence": "LDCEICGFQCTQKGNLLRHIKL [46L_47D_49E_50I_52G_53F_54Q_55C_67L_, Q9UKT9]", "log2 fold change of degron read counts": -0.616}
{"item.sequence": "FTCPICGAPFTQKGNLLRHIKL [46F_47T_49P_50I_52G_53A_54P_55F_67L_, Q9UKT9]", "log2 fold change of degron read counts": 3.25}
{"item.sequence": "LSCEICGFQCTQKGNLLRHIKL [46L_47S_49E_50I_52G_53F_54Q_55C_67L_, Q9UKT9]", "log2 fold change of degron read counts": 1.19}
{"item.sequence": "LYCEICGFQCTQKGNLLRHIKL [46L_47Y_49E_50I_52G_53F_54Q_55C_67L_, Q9UKT9]", "log2 fold change of degron read counts": 1.8}
{"item.sequence": "LWCEICGFQCTQKGNLLRHIKL [46L_47W_49E_50I_52G_53F_54Q_55C_67L_, Q9UKT9]", "log2 fold change of degron read counts": 1.13}
{"item.sequence": "LFCEICGFQCTQKGNLLRHIKL [46L_47F_49E_50I_52G_53F_54Q_55C_67L_, Q9UKT9]", "log2 fold change of degron read counts": 2.09}
{"item.sequence": "FTCPICGADFTQKGNLLRHIKL [46F_47T_49P_50I_52G_53A_54D_55F_67L_, Q9UKT9]", "log2 fold change of degron read counts": 2.53}

For every listed record, write down its log2 fold change of degron read counts.
1. FYCPICGRSFTQKGNLLRHIKL [46F_47Y_49P_50I_52G_53R_54S_55F_67L_, Q9UKT9]
2. FYCPICGRFFTQKGNLLRHIKL [46F_47Y_49P_50I_52G_53R_54F_55F_67L_, Q9UKT9]

### Response
1: -2.4; 2: -2.07

For every listed record, write down its log2 fold change of degron read counts.
1. FTCPICGHPFTQKGNLLRHIKL [46F_47T_49P_50I_52G_53H_54P_55F_67L_, Q9UKT9]
2. LMCEICGFQCTQKGNLLRHIKL [46L_47M_49E_50I_52G_53F_54Q_55C_67L_, Q9UKT9]

### Response
1. 0.479
2. 2.04

Consider FFCPQCGAHFTQKGNLLRHIKL [46F_47F_49P_50Q_52G_53A_54H_55F_67L_, Q9UKT9] . Its measured log2 fold change of degron read counts is -0.835
